meta.source: ChEMBL document CHEMBL3217588

molecular target: Histone deacetylase 1 (Homo sapiens); experiment: Inhibition of human recombinant HDAC1 after 1 hr by luminescence assay
pIC50: −log10 of the molar value.
Assay Readout: pIC50

compound_smiles=CSCC[C@H]1NC(=O)C[C@H]2/C=C/CCSSC[C@@H](NC1=O)C(=O)N[C@H](CC(C)C)[C@@H](O)CC(=O)O2 measurement_target="Histone deacetylase 1 (Homo sapiens)" assay_readout=pIC50 data_value=9.03
compound_smiles=CC[C@H](C)[C@H]1NC(=O)[C@H]2CSSCC/C=C/[C@H](CC(=O)N[C@H](CCSC)C(=O)N2)OC(=O)C[C@@H]1O measurement_target="Histone deacetylase 1 (Homo sapiens)" assay_readout=pIC50 data_value=9.55
compound_smiles=CCCC[C@H]1NC(=O)C[C@H]2/C=C/CCSSC[C@@H](NC1=O)C(=O)N[C@H](CC(C)C)[C@@H](O)CC(=O)O2 measurement_target="Histone deacetylase 1 (Homo sapiens)" assay_readout=pIC50 data_value=8.59

----------
target: Histone deacetylase 4 (Homo sapiens, UniProt P56524); assay: Inhibition of human recombinant HDAC4 after 1 hr by luminescence assay
Sequence (P56524 whole entry): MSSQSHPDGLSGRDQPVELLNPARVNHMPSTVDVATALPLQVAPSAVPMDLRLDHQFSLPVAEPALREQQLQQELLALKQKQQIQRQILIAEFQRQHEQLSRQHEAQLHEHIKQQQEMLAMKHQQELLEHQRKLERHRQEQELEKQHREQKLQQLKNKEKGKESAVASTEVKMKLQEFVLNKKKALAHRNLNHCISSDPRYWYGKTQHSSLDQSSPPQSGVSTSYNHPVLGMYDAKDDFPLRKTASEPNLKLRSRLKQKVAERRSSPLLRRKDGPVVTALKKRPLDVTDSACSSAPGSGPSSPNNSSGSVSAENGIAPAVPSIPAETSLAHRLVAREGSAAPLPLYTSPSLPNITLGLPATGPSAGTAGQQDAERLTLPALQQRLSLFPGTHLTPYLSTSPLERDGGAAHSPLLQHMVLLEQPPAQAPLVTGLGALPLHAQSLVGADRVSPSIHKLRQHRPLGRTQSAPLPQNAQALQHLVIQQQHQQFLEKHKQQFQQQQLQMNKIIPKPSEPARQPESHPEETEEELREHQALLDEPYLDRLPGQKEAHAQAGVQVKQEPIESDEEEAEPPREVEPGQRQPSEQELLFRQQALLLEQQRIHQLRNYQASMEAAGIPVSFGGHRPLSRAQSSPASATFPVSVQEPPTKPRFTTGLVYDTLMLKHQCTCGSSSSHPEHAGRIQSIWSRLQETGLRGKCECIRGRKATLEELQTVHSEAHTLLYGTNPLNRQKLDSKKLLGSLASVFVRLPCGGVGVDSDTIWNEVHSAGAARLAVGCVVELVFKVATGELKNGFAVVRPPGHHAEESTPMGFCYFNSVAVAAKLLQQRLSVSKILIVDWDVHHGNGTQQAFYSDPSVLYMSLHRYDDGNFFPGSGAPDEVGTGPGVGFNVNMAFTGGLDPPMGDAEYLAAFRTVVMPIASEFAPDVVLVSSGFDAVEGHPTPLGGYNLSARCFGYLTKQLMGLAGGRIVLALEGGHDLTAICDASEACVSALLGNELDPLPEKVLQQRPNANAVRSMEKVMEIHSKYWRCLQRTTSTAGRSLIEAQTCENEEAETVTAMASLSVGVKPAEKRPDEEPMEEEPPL
Assay Readout: IC50

compound_smiles=CC[C@H](C)[C@H]1NC(=O)[C@H]2CSSCC/C=C/[C@H](CC(=O)N[C@H](CCSC)C(=O)N2)OC(=O)C[C@@H]1O data_value="37.2 µM"
compound_smiles=CCCC[C@H]1NC(=O)C[C@H]2/C=C/CCSSC[C@@H](NC1=O)C(=O)N[C@H]([C@@H](C)CC)[C@@H](O)CC(=O)O2 data_value="57.4 µM"
compound_smiles=CSCC[C@H]1NC(=O)C[C@H]2/C=C/CCSSC[C@@H](NC1=O)C(=O)N[C@H](CC(C)C)[C@@H](O)CC(=O)O2 data_value="58.9 µM"

----------
In this section we review reported IC50 values for a set of compounds.
target: Histone deacetylase 1 (Homo sapiens, UniProt Q13547); test: Inhibition of human recombinant HDAC1 after 1 hr by luminescence assay
Sequence (Q13547 whole entry): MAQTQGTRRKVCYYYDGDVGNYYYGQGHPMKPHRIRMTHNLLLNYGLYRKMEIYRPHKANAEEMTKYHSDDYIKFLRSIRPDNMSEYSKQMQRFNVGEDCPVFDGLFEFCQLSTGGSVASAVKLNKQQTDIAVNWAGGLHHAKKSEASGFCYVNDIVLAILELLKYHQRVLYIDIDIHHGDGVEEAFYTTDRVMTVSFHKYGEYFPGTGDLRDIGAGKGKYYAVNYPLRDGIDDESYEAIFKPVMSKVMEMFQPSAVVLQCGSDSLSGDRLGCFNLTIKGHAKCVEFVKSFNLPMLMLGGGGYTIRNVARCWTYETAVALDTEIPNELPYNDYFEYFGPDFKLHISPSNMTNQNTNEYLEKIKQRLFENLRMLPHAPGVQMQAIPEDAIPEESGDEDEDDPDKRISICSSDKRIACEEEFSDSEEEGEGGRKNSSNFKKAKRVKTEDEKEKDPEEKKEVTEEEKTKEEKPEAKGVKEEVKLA
Assay Readout: IC50 (nM)

compound=CCCC[C@H]1NC(=O)C[C@H]2/C=C/CCSSC[C@@H](NC1=O)C(=O)N[C@H](C(C)C)[C@@H](O)CC(=O)O2 assay_readout=IC50 display_unit=nM data_value=0.48
compound=CSCC[C@H]1NC(=O)C[C@H]2/C=C/CCSSC[C@@H](NC1=O)C(=O)N[C@H](C(C)C)[C@@H](O)CC(=O)O2 assay_readout=IC50 display_unit=nM data_value=0.2
compound="CCCC[C@H]1NC(=O)C[C@H]2/C=C/CCSSC[C@@H](NC1=O)C(=O)N[C@H]([C@@H](C)CC)[C@@H](O)CC(=O)O2 [THAILANDEPSIN B]" assay_readout=IC50 display_unit=nM data_value=1.2

----------
In this section we review reported pIC50 values for a set of compounds.
target: Protein deacetylase HDAC6 (Homo sapiens, UniProt Q9UBN7); assay: Inhibition of human recombinant HDAC6 after 1 hr by luminescence assay
Sequence (Q9UBN7 whole entry): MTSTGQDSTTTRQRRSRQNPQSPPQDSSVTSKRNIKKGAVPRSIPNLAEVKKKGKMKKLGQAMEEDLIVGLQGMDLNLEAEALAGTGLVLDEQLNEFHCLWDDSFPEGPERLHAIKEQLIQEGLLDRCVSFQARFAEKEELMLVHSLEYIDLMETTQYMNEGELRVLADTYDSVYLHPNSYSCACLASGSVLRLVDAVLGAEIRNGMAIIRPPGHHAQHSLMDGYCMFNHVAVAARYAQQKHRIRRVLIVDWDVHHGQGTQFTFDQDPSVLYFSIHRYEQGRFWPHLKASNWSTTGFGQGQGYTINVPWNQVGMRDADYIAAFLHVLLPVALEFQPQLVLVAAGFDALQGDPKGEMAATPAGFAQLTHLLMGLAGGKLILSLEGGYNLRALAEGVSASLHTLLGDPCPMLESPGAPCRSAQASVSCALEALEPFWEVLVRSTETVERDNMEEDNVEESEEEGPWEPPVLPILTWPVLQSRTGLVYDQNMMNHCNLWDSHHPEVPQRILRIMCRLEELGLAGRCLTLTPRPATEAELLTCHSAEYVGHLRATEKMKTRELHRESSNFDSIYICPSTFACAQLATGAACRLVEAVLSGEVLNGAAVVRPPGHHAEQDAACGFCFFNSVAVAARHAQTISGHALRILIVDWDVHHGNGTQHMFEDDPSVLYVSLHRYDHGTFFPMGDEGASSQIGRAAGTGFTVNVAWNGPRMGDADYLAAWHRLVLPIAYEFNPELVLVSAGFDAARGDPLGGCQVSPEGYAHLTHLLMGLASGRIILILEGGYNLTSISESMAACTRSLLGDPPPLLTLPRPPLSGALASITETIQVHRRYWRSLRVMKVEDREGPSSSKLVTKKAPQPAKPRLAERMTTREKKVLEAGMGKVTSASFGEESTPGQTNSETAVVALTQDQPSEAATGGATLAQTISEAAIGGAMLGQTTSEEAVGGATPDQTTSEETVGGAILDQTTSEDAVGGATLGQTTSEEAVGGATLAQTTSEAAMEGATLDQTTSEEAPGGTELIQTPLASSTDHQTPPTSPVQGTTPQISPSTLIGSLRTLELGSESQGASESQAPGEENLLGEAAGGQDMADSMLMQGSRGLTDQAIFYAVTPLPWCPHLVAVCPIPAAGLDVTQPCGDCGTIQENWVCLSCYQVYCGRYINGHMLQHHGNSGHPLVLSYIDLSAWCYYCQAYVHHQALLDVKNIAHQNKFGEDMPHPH
pIC50: −log10 of the molar value.
Assay Readout: pIC50

compound=CCCC[C@H]1NC(=O)C[C@H]2/C=C/CCSSC[C@@H](NC1=O)C(=O)N[C@H](C(C)C)[C@@H](O)CC(=O)O2 data_value=6.03
compound="CC[C@H](C)[C@H]1NC(=O)[C@H]2CSSCC/C=C/[C@H](CC(=O)N[C@H](CCSC)C(=O)N2)OC(=O)C[C@@H]1O [THAILANDEPSIN A]" data_value=6.08
compound=CCCC[C@H]1NC(=O)C[C@H]2/C=C/CCSSC[C@@H](NC1=O)C(=O)N[C@H](CC(C)C)[C@@H](O)CC(=O)O2 data_value=5.72
compound=CSCC[C@H]1NC(=O)C[C@H]2/C=C/CCSSC[C@@H](NC1=O)C(=O)N[C@H](C(C)C)[C@@H](O)CC(=O)O2 data_value=6.11
compound=CSCC[C@H]1NC(=O)C[C@H]2/C=C/CCSSC[C@@H](NC1=O)C(=O)N[C@H](CC(C)C)[C@@H](O)CC(=O)O2 data_value=5.77
compound="CCCC[C@H]1NC(=O)C[C@H]2/C=C/CCSSC[C@@H](NC1=O)C(=O)N[C@H]([C@@H](C)CC)[C@@H](O)CC(=O)O2 [THAILANDEPSIN B]" data_value=5.92
